Header: IC50 / Choline kinase alpha (Homo sapiens, UniProt P35790) / multiple publications
We label by threshold. Values of IC50 strictly beneath 7 µM are True. Values of 7 µM and up are False.

moleculeSmiles: c1c[n+](C[C@H]2C[C@@H]2C[n+]2ccc(N3CCCC3)cc2)ccc1N1CCCC1
assayTarget: Choline kinase alpha (Homo sapiens, UniProt P35790)
Sequence (P35790 whole entry): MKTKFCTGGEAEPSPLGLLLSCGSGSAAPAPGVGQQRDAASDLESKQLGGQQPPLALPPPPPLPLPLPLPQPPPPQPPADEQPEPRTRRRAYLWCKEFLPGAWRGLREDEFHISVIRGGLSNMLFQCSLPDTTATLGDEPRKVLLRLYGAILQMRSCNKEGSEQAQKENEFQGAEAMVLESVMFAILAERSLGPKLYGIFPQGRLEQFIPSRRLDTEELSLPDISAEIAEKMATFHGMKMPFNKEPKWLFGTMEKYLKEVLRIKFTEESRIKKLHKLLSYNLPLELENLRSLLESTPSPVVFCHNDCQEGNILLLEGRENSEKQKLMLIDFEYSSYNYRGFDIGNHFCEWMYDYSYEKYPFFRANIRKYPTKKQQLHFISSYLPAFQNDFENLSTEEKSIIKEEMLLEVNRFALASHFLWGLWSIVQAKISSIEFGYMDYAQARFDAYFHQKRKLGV
assignedCategory: False
--
moleculeSmiles: CN(c1ccccc1)c1cc[n+](Cc2ccc(C[n+]3ccc(N(C)c4ccccc4)cc3)cc2)cc1
assayTarget: Choline kinase alpha (Homo sapiens, UniProt P35790)
assignedCategory: False
--
moleculeSmiles: Cc1c(N)ccc2c(N(C)c3ccccc3)cc[n+](Cc3ccc(-c4ccc(C[n+]5ccc(N(C)c6ccccc6)c6ccc(N)c(C)c65)cc4)cc3)c12
assayTarget: Choline kinase alpha (Homo sapiens, UniProt P35790)
assignedCategory: False
--
moleculeSmiles: Nc1cc[n+](Cc2cccc(-c3cccc(C[n+]4ccc(N)c5ccc(Cl)cc54)c3)c2)c2cc(Cl)ccc12
assayTarget: Choline kinase alpha (Homo sapiens, UniProt P35790)
assignedCategory: False
--
moleculeSmiles: Clc1ccc2c(N3CCCCCC3)cc[n+](Cc3ccc(-c4ccccc4)cc3)c2c1.[Br-]
assayTarget: Choline kinase alpha (Homo sapiens, UniProt P35790)
assignedCategory: True
--
moleculeSmiles: c1cc(C[n+]2ccc(N3CCCCC3)cc2)ccc1C[n+]1ccc(N2CCCCC2)cc1
assayTarget: Choline kinase alpha (Homo sapiens, UniProt P35790)
assignedCategory: False
--
moleculeSmiles: Nc1cc[n+](Cc2ccc(-c3ccc(C[n+]4ccc(N)c5ccc(Cl)cc54)cc3)cc2)c2cc(Cl)ccc12
assayTarget: Choline kinase alpha (Homo sapiens, UniProt P35790)
assignedCategory: False
--
moleculeSmiles: c1ccc(Nc2cc[n+](Cc3ccc(CCc4ccc(C[n+]5ccc(Nc6ccccc6)c6ccccc65)cc4)cc3)c3ccccc23)cc1
assayTarget: Choline kinase alpha (Homo sapiens, UniProt P35790)
assignedCategory: True
--
moleculeSmiles: CN(c1ccccc1)c1cc[n+](C[C@H]2C[C@@H]2C[n+]2ccc(N(C)c3ccccc3)cc2)cc1
assayTarget: Choline kinase alpha (Homo sapiens, UniProt P35790)
assignedCategory: False
--
moleculeSmiles: CN(C)c1cc[n+](Cc2cccc(-c3cccc(C[n+]4ccc(N(C)C)c5ccccc54)c3)c2)c2ccccc12
assayTarget: Choline kinase alpha (Homo sapiens, UniProt P35790)
assignedCategory: True
--
moleculeSmiles: CN(c1ccc(Cl)cc1)c1cc[n+](Cc2cc(C[n+]3ccc(N(C)c4ccc(Cl)cc4)cc3)cc(C[n+]3ccc(N(C)c4ccc(Cl)cc4)cc3)c2)cc1
assayTarget: Choline kinase alpha (Homo sapiens, UniProt P35790)
assignedCategory: True
--
moleculeSmiles: O=C(c1cc([C@H]2CCCN2c2cc(F)cc(F)c2)c2oc(N3CCOCC3)cc(=O)c2c1)N1CCOCC1
assayTarget: Choline kinase alpha (Homo sapiens, UniProt P35790)
assignedCategory: False
--
moleculeSmiles: c1cc(-c2ccc(C[n+]3ccc(N4CCCCC4)cc3)cc2)ccc1C[n+]1ccc(N2CCCCC2)cc1
assayTarget: Choline kinase alpha (Homo sapiens, UniProt P35790)
assignedCategory: False
--
moleculeSmiles: c1cc(C[n+]2ccc(N3CCCCC3)cc2)cc(C[n+]2ccc(N3CCCCC3)cc2)c1
assayTarget: Choline kinase alpha (Homo sapiens, UniProt P35790)
assignedCategory: False
--
moleculeSmiles: CN(c1ccccc1)c1cc[n+](Cc2cccc(C[n+]3ccc(N(C)c4ccccc4)cc3)c2)cc1
assayTarget: Choline kinase alpha (Homo sapiens, UniProt P35790)
assignedCategory: False
--
moleculeSmiles: CN(c1ccccc1)c1cc[n+](Cc2ccc(-c3ccc(C[n+]4ccc(N(C)c5ccccc5)cc4)cc3)cc2)cc1
assayTarget: Choline kinase alpha (Homo sapiens, UniProt P35790)
assignedCategory: True
--
moleculeSmiles: CN(C)c1cc[n+](Cc2ccc(-c3ccc(C[n+]4ccc(N(C)C)c5ccccc54)cc3)cc2)c2ccccc12
assayTarget: Choline kinase alpha (Homo sapiens, UniProt P35790)
assignedCategory: False
--
moleculeSmiles: CN(C)c1cc[n+](Cc2ccc(CCc3ccc(C[n+]4ccc(N(C)C)c5ccccc54)cc3)cc2)c2ccccc12
assayTarget: Choline kinase alpha (Homo sapiens, UniProt P35790)
assignedCategory: False
--
moleculeSmiles: COc1ncc(-c2cc3c(c(NC(=O)CN4CCOCC4)c2)COC3)cc1NS(C)(=O)=O
assayTarget: Choline kinase alpha (Homo sapiens, UniProt P35790)
assignedCategory: False
